Molecular target: T1, Human IMPα3 aa 64–521 (lacking the IMPβ binding domain) (human, UniProt O00629 64-521)
T1 chain: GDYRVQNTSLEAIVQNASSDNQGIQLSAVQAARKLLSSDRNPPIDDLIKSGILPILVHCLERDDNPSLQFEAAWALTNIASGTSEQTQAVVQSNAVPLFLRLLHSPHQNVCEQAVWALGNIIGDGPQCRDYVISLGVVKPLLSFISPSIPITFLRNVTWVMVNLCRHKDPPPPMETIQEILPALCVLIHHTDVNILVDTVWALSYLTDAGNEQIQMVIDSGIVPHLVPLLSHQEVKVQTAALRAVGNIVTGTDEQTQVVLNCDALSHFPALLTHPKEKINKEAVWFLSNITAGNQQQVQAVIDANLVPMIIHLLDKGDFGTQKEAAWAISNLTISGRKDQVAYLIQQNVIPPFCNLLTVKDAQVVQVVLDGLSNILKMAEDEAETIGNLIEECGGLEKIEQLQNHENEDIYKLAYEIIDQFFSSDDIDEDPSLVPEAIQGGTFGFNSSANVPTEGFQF
Test: FP
pKd: −log10 of the molar value. No end group written: not given here.
quantityKind: pKd

INSERT INTO results (binder, endpointvalue) VALUES
  ('VRRAGKYYSVEYCKRKID (also: FITC-labelled, site not given here) [FITC-labelled HeV M NLS2 peptide]', 4.94),
  ('SGKRKKIRTIAAYPLGVGKS (also: FITC-labelled, site not given here) [FITC-labelled HeV M NLS1 peptide]', 5.61);
